- Target System: recombinant human FGFR2 cytoplasmic domain (amino acids 403-822) (Homo sapiens (Human))
- Sequence (P21802 402-821): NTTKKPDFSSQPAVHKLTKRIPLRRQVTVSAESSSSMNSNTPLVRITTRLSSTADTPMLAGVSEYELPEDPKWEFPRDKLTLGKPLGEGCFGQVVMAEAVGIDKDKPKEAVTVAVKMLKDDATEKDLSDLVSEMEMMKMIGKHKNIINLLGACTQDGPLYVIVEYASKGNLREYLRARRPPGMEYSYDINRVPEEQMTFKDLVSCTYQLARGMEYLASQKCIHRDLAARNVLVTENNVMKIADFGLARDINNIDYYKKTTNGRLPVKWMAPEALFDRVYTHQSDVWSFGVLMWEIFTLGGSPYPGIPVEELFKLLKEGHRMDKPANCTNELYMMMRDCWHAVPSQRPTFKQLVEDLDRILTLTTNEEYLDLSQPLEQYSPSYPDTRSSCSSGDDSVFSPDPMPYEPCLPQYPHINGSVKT
- Protocol: FGFR2 enzyme activity assay (LanthaScreen TR-FRET)
- Measurement Conditions: 15 μM ATP, 20 min incubation at 22° C., average of multiple determinations if made, read-out: FGFR2 Enz FRET IC50
We begin with a simple list: items and their reported IC50.

- Molecule: "C=CC(=O)N1CC(C)(CN2CC(n3ncc(-c4cc(OC)c5c(C#N)cnn5c4)c3C)C2)C1 [Example 93]"
  Target System: "recombinant human FGFR2 cytoplasmic domain (amino acids 403-822) (Homo sapiens (Human))"
  IC50: "0.127 µM"
- Molecule: "C=CC(=O)N1CC(C(=O)N2CCC(n3cc(-c4cc(OC)c5c(C#N)cnn5c4)c(C)n3)CC2)C1 [Example 94]"
  Target System: "recombinant human FGFR2 cytoplasmic domain (amino acids 403-822) (Homo sapiens (Human))"
  IC50: "0.022 µM"
- Molecule: "COC/C=C/C(=O)N1CC(F)(C(=O)N2CCC(n3ncc(-c4cc(OC)c5c(C#N)cnn5c4)c3C)CC2)C1 [Example 154]"
  Target System: "recombinant human FGFR2 cytoplasmic domain (amino acids 403-822) (Homo sapiens (Human))"
  IC50: "0.016 µM"
- Molecule: "C=CC(=O)N1CCC(C(=O)N2CC[C@H](n3cc(-c4cc(OC)c5c(C#N)cnn5c4)cn3)C2)CC1 [Example 62]"
  Target System: "recombinant human FGFR2 cytoplasmic domain (amino acids 403-822) (Homo sapiens (Human))"
  IC50: "0.005 µM"
